tested on: T1, human IL-1α (human, UniProt P01583 113-271)
T1 sequence (looked up): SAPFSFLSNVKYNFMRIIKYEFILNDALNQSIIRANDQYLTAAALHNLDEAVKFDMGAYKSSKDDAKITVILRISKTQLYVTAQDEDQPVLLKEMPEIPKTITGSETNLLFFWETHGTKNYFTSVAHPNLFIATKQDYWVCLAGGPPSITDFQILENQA
assay overview: cell-based or functional assay
We begin with a simple list: items and their reported ND50.

Below, 2 binders whose answers are already recorded.
{"columns": ["binder", "experimental value"],
 "data": [
  ["ABT1-95-41 (other, VK dAb) VL: DIQMTQSPSSLSASVGDRVTITCRASYPIVRNLRWYQQKPGKAPKLLIYSSSYLEPGVPSRFSGSGSGTDFTLTISSLQPEDFATYHCQQGYRWPVTFGQGTKVEIKR", "0.15 nM"],
  ["ABT1-141-32 (other) VL: DIQMTQSPSSLSASVGDRITITCRASQWIQKQLAWYQLKPGKAPKLLIYSSSYLQSGVPSRFSGSGSGTDFTLTISSLQPEDFATYYCQQHLRVPMTFGQGTKVEIKR", "10 nM"]
]}

Turning now to a further binder:
Param item = ABT1-95-160 (other, VK dAb) VL: DIQMTQSPSSLSASVGDRVTITCRASQPIVRNLRWYQQKPGKAPKLLIYSSSYLEPGVPSRFSGSGSGTDFTLTISSLQPEDFATYHCQQGYVWPVTFGQGTKVEIKR ; retrieve measured ND50.
0.238 nM
